# cond: buffer; pH 7.4; 200.0 µM
reported.endpoint: log10 solubility kinetic (log10 of the value in µg/mL)

molecule: O/N=C/c1cc2ccccc2n1Cc1ccccc1F
log10 solubility kinetic: -0.30
--
molecule: CC1CCC2(CC1)NC(=O)N(CC(=O)NCc1ccc3c(c1)OCO3)C2=O (stereo unspecified)
log10 solubility kinetic: 0.79
--
molecule: S=C(NCc1ccco1)N1CCN(c2cccc(Cl)c2)CC1
log10 solubility kinetic: 1.08
--
molecule: CC(Cc1ccccc1)NC(=O)CC(c1ccccc1)c1ccccc1O (stereo unspecified)
log10 solubility kinetic: 1.03
--
molecule: CC1CN(C(=O)Cn2c(=O)oc3ccccc32)CC(C)O1 (stereo unspecified)
log10 solubility kinetic: 1.63
--
molecule: C=CCn1c(-c2ccc(Cl)cc2)cnc1SC(C)C(=O)NC(N)=O (stereo unspecified)
log10 solubility kinetic: 1.15
--
molecule: COc1ccc(C(=O)NCCONC(=O)c2ccc(OC)cc2)cc1
log10 solubility kinetic: 1.70
--
molecule: Cc1ccc(S(=O)(=O)N2CCOCC2)cc1NC(=O)COC(=O)CCc1c[nH]c2ccccc12
log10 solubility kinetic: 1.42
--
molecule: CC(=O)c1ccc(NC(=S)NC(=O)/C=C/c2ccco2)cc1
log10 solubility kinetic: 0.15

---

# cond: buffer; pH 7.4; 200.0 µM
reported.endpoint: solubility kinetic (µg/mL)

compound: Cc1cc(C(=O)COC(=O)c2ccc(F)cc2)c(C)n1C
limit.sign: =
test.result: 1.2

compound: COc1ccc(C(=O)N2CCc3c([nH]c4ccccc34)C2C(F)(F)F)cc1 (stereo unspecified)
limit.sign: =
test.result: 1.1

compound: O=C1ON=C(c2ccccc2)/C1=C/c1ccc(O)c(O)c1
limit.sign: >
test.result: 42.2

compound: Cc1ccc(C(=O)NCCCc2ccccc2)c(Cl)c1
limit.sign: =
test.result: 31.9

compound: O=C1C2C3CCC(O3)C2C(=O)N1c1cccc(O)c1 (stereo unspecified)
limit.sign: >
test.result: 38.9

compound: Cc1ccc(C23CC4CC(CC(CN)(C4)C2)C3)cc1.Cl
limit.sign: >
test.result: 43.8

---

# cond: buffer; pH 7.4; 200.0 µM
Reported solubility kinetic is given for each of the following compounds.
reported.endpoint: solubility kinetic (µg/mL)

compound: O=S(=O)(c1ccc(F)cc1)N1CCN(CCOc2ccccc2)CC1
unit.name: µg/mL
limit.sign: =
test.result: 41.1

compound: C=CCn1cccc(C(=O)Nc2ccc(OC)c(Cl)c2)c1=O
unit.name: µg/mL
limit.sign: =
test.result: 1.5

compound: CC(C)[C@H](NC(=O)c1ccccc1)C(=O)OCC(=O)Nc1ccc(S(=O)(=O)N2CCOCC2)cc1
unit.name: µg/mL
limit.sign: =
test.result: 3

compound: O=C(OCN1C(=O)c2ccccc2C1=O)c1ccc(Cl)nc1
unit.name: µg/mL
limit.sign: =
test.result: 14.3

compound: O=C1N/C(=N\c2ccccn2)SC1Cc1ccc(Cl)cc1 (stereo not drawn)
unit.name: µg/mL
limit.sign: <
test.result: 0.2

compound: Cc1cc(C)c2oc(C(=O)N3CCN(C)CC3)cc(=O)c2c1
unit.name: µg/mL
limit.sign: =
test.result: 27.2

compound: Clc1ccc(CSC(Cn2ccnc2)c2ccc(Cl)cc2Cl)cc1.O=[N+]([O-])O (stereo not drawn)
unit.name: µg/mL
limit.sign: =
test.result: 48.7

compound: CC(C)(C)NC(=O)c1cccc2c1C(=O)c1ccccc1-2
unit.name: µg/mL
limit.sign: =
test.result: 3.9

compound: Cc1cnc(NC(=O)c2ccc(Cl)nc2)s1
unit.name: µg/mL
limit.sign: =
test.result: 6.6

compound: CC(=O)N(c1cccc(Cl)c1)c1nc(C)cc(C)c1C#N
unit.name: µg/mL
limit.sign: >
test.result: 45

compound: O=C(Cc1ccccc1Cl)N1CCN(c2ccccn2)CC1
unit.name: µg/mL
limit.sign: >
test.result: 47.4

compound: COc1ccc(CCNC(=O)c2cc3c(C)nccc3[nH]c2=O)cc1OC
unit.name: µg/mL
limit.sign: =
test.result: 17.1

compound: CC(C)CCC1(C)NC(=O)N(CC(=O)NCC(=O)Nc2ccc(F)c(F)c2F)C1=O (stereo not drawn)
unit.name: µg/mL
limit.sign: >
test.result: 64.3

compound: CC(=C\c1ccccc1)/C=C1/SC(=S)N(CCC(=O)O)C1=O
unit.name: µg/mL
limit.sign: =
test.result: 34.7

compound: CN1C(=O)Nc2cccc3cccc1c23
unit.name: µg/mL
limit.sign: =
test.result: 10.1

compound: CC(C)(C)C(=O)N1CCn2c1nc1ccccc12
unit.name: µg/mL
limit.sign: =
test.result: 31.9

compound: Cc1ccc(-c2cc(C(=O)Nc3cc(C)ccc3O)no2)cc1
unit.name: µg/mL
limit.sign: <
test.result: 0.3

compound: O=C1c2ccccc2C(=O)N1S(=O)(=O)c1ccccc1
unit.name: µg/mL
limit.sign: >
test.result: 43.1

compound: Cc1cc([N+](=O)[O-])nn1CC(=O)N1CCN(Cc2ccccc2)CC1
unit.name: µg/mL
limit.sign: >
test.result: 51.5

compound: O=C(O)COc1ccccc1-c1nc(-c2ccccc2)c(-c2ccccc2)[nH]1
unit.name: µg/mL
limit.sign: =
test.result: 46.1

compound: Cc1nc(-c2ccccc2)[nH]c(=O)c1Oc1ccc(Cl)cc1Cl
unit.name: µg/mL
limit.sign: <
test.result: 0.4

compound: CCN(CC(=O)Nc1cc(Cl)cc(Cl)c1)CC(=O)NC1CCS(=O)(=O)C1 (stereo not drawn)
unit.name: µg/mL
limit.sign: =
test.result: 52.3

compound: Nc1ccc(SCc2cccnc2)cc1
unit.name: µg/mL
limit.sign: =
test.result: 31
